Assay: BSK_3C_TissueFactor: BioMAP Diversity Plus: 3C Assay for Tissue Factor Biomarker Activity (AID 2282997)
Details: BioMAP 3C HUVEC, tissue factor biomarker readout; actives raise or lower the signal
Method: BSK_3C is a cell-based, multiplexed-readout assay that uses umbilical vein endothelium, a human vascular primary cell, with measurements taken at 24 hours after chemical dosing in a 96-well plate.BSK_3C_TissueFactor is an assay component measured in the BSK_3C assay. It measures Tissue Factor antibody related to regulation of gene expression using ELISA technology.Data from the assay component BSK_3C_TissueFactor was analyzed into 1 assay endpoint. […]
Calls of active or inactive are those of the source. Rule for the calls: active = hit-call score of the fitted dose curve at least 0.9, where 1 is the maximum; inactive = score below 0.9.
The reply should name one outcome from active, inactive

>>> print(df.to_string())
                                   molecule  assigned_class
0  C1=CC2C3C=CC(C3)C2C1 (configuration not stated)        inactive
1        CCOC(=O)C(C#N)=C(c1ccccc1)c1ccccc1        inactive
2        CN(C)C(=O)Nc1ccc(Oc2ccc(Cl)cc2)cc1        inactive
3  C[C@@H]1CCN(C(=O)[C@H](CCCN=C(N)N)NS(=O)(=O)c2cccc3c2NC[C@H](C)C3)[C@@H](C(=O)O)C1        inactive

Next, consider the following molecule.
In: For this molecule, state the assay outcome: "CS(=O)(=O)c1ccc(C2=C(c3ccccc3)C(=O)OC2)cc1"
Out: inactive

---

biological target: Nuclear receptor subfamily 4 group A member 2 (Homo sapiens) (UniProt P43354); test: ATG_NURR1_TRANS: Attagene TRANS-FACTORIAL HepG2 Assay for human Nuclear Receptor Related Protein 1 (NURR1) (AID 2282985); conditions: HepG2 Attagene TRANS reporter, mRNA readout
Sequence (P43354 whole entry, looked up): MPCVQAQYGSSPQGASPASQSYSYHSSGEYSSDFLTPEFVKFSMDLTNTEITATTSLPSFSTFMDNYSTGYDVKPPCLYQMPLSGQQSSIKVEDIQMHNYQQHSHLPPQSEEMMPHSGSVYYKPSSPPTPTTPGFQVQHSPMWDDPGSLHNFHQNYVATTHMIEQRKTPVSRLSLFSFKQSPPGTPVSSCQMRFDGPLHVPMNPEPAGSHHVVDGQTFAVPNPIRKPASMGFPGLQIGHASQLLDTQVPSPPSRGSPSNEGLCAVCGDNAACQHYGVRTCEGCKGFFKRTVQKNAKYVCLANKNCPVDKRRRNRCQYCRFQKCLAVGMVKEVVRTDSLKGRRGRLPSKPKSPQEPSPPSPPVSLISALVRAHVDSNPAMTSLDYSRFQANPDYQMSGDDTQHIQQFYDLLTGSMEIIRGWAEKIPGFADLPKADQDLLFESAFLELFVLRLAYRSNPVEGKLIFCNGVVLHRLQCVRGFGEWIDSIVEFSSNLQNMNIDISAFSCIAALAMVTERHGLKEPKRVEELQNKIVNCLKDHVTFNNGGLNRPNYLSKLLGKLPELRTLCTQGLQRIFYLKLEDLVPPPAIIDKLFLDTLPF
Results filed as inconclusive are left out. The source made the active and inactive calls. The calls were made as follows: active = hit-call score of the fitted dose curve at least 0.9, where 1 is the maximum; inconclusive = response in the unintended direction; inactive = score below 0.9.
The reply should name one outcome from active, inactive

In [3]: df
Out[3]:
                                   compound                                    system  assigned_class
0                                    IC(I)I  Nuclear receptor subfamily 4 group A member 2 (Homo sapiens) (UniProt P43354)        inactive
1                 CCCC(=O)OC(C)(C)Cc1ccccc1  Nuclear receptor subfamily 4 group A member 2 (Homo sapiens) (UniProt P43354)        inactive
2                                    CCNCCO  Nuclear receptor subfamily 4 group A member 2 (Homo sapiens) (UniProt P43354)        inactive
3  COc1ccc(CCN2CCC(Nc3nc4ccccc4n3Cc3ccc(F)cc3)CC2)cc1  Nuclear receptor subfamily 4 group A member 2 (Homo sapiens) (UniProt P43354)        inactive
4                        [Cl][Au]([Cl])[Cl]  Nuclear receptor subfamily 4 group A member 2 (Homo sapiens) (UniProt P43354)        inactive
5  O=C(Nc1ccc2c(O)c(N=Nc3ccc(N=Nc4ccc(S(=O)(=O)O)cc4)cc3)c(S(=O)(=O)O)cc2c1)c1ccccc1  Nuclear receptor subfamily 4 group A member 2 (Homo sapiens) (UniProt P43354)        inactive
6                         O=C(O)c1ccc(O)cc1  Nuclear receptor subfamily 4 group A member 2 (Homo sapiens) (UniProt P43354)        inactive
7                          CC/C=C\CC/C=C/CO  Nuclear receptor subfamily 4 group A member 2 (Homo sapiens) (UniProt P43354)        inactive

In: For this compound, state the assay outcome: "C[N+](C)(C)CCCCCC[N+](C)(C)C"
Out: inactive

In: For this compound, state the assay outcome: "CC(C)(C)C1=CC(=O)C(C(C)(C)C)=CC1=O"
Out: active

In: For this compound, state the assay outcome: CCCC1O[C@@H]2C[C@H]3[C@@H]4CCC5=CC(=O)C=C[C@]5(C)[C@H]4[C@@H](O)C[C@]3(C)[C@]2(C(=O)CO)O1 (stereo partly drawn)
Out: inactive

In: For this compound, state the assay outcome: "COc1ccccc1N=Nc1c(S(=O)(=O)O)cc2cc(S(=O)(=O)O)cc(NC(C)=O)c2c1O"
Out: inactive

In: For this compound, state the assay outcome: "CC(=O)Nc1ccc(C(=O)CCl)cc1"
Out: inactive
